System: SF-539 CNS
Assay: NCI tumour cell line growth inhibition, 48 h
Listed compounds paired with reported TGI
Please give a number only; it is taken to be in µM.

C[C@@H]1CC[C@]2(C)C3(C)CC[C@]2(OC3=O)[C@@]12CC(c1ccoc1)OC2=O (stereo not given in full): 59.2

From here, focus on the item given below.
Query :: Quick one: give measured TGI for C#Cc1ccc(-n2c(/C=C/c3ccc(O)cc3)nc3ncccc3c2=O)cc1
Result :: 6.1

* * *

System: NCI-H460 lung
Assay: NCI tumour cell line growth inhibition, 48 h
Outcome measure: TGI

// solved cases for TGI follow
Nc1nc(=S)c2c(ncn2CCO)[nH]1: > 100 µM
Cn1c(=O)c2nc3sc4c(n3c2n(C)c1=O)C(=O)c1ccccc1C4=O: > 95.4 µM
COC1(OC)c2occc2C(=N)c2ccc(=O)oc21: > 100 µM
O=C1N[C@@H]2CCCC[C@@H]2C12CCCCC2: > 100 µM
O=C1CC(c2ccc(Cl)cc2)=Nc2ccccc2N1: > 100 µM
O=C1c2ccccc2C(=O)c2[nH]cnc21: > 100 µM
Cc1c(C)c2c(c(N)c1C#N)C(=O)N(Cc1ccc(S(N)(=O)=O)cc1)C2=O: > 100 µM
CSc1nc2nc(-c3ccccc3)c(C)c-2c2n1C(C)C(=O)N2 (stereo not given): > 100 µM
CC(=O)Oc1ccc(C2=Cc3ccc(OC(C)=O)cc3OC2C)cc1 (stereo not given): 13.2 µM
CCN1/C(=C/C#C/C(C)=C\c2sc3ccc(Cl)cc3[n+]2CC)Sc2ccc(Cl)cc21: > 100 µM

Query :: Output TGI of C=C(C#N)C(=O)OCC(CC)CC.C=C(C#N)C(=O)OCC(CC)CC.CS(C)=O.CS(C)=O.Nc1c(N=Nc2ccc(-c3ccc(N=Nc4cc(S(=O)(=O)[O-])c5ccccc5c4N)cc3)cc2)cc(S(=O)(=O)[O-])c2ccccc12.[Pt+2]
Result :: > 100 µM

Query :: Fill in TGI for record O=C(c1ccccc1)[C@H]1Nc2ccc(Cl)cc2[C@H]2CCC[C@@H]12
Result :: 88 µM

Query :: Respond only with TGI recorded for CCOc1cnc(C(O)(c2ccccc2)c2ccccc2)o1
Result :: > 100 µM

Query :: # return recorded TGI for entry CCCCCC(=O)O[C@]1(C(C)=O)CCC2C3CCC4=CC(=O)CC[C@]4(C)C3CC[C@@]21C (stereo not given in full)
Result :: 8.59 µM

* * *

Test system: HCT-116 colon
Experiment: NCI tumour cell line growth inhibition, 48 h; in the data active = GI50 below about 0.43 µM; inactive = the rest
Where a SMILES comes first, the peptide text is derived from it. Bridges are numbered along the chain shown (N, C = ends). [ ]: non-standard residue; d: D form. aThr = C[C@H](O)[C@H](N)C(=O)O
Field 'call' accepts y (active), n (inactive)

CC(C)C[C@@H]1NC(=O)[C@@H]2CCCN2C(=O)[C@@H]2CCCN2C(=O)[C@H](CC(C)C)NC(=O)[C@H](CO)NC(=O)[C@H](CCCCN)NC(=O)[C@H]([C@H](C)O)NC(=O)[C@@H]2CSSC[C@@H](NC1=O)C(=O)N[C@@H](Cc1ccccc1)C(=O)N1CCC[C@H]1C(=O)N[C@@H](CC(=O)O)C(=O)NCC(=O)N[C@@H](CCCN=C(N)N)C(=O)N2 (cyclo(C[aThr]KSLPPL[dC]FPDGR); disulfide 1-9): n

Query :: Record request — test call for COc1cc(-c2nccc3[nH]c(-c4ccc5cc[nH]c5c4)nc23)cc(OC)c1OC
Result :: y

Source listed as PubChem BioAssay (NCI).
